Values were extracted from PubChem BioAssay (NCI).

tested on: XF 498 CNS; assay: NCI tumour cell line growth inhibition, 48 h
MEASUREMENT TYPE: TGI

Here are 2 molecules together with their reported answers.
Cc1cccc(C)c1NC(=O)CCCC(=O)C1CC(=O)CCC1=O (stereo not drawn)	> 100 µM
CC1=NN(C(=O)c2ccc(Cl)cc2)C(=O)/C1=C/c1cccc([N+](=O)[O-])c1	> 100 µM

Query: I would be grateful if you could share the reported TGI for CCO[C@@H]1C2C=CC(C2)[C@H]1[N+](=O)[O-] (stereo partly drawn) .
Result: > 100 µM

Query: Ok, now C=C(N=[N+]=[N-])c1cn(C2CC(O)C(CO)O2)c(=O)[nH]c1=O (stereo not drawn)
Result: > 100 µM

Query: Ok, now `O=C1c2ccccc2C(=O)C1C(c1ccc([N+](=O)[O-])cc1)C1C(=O)c2ccccc2C1=O`
Result: > 100 µM

Query: Ok, now Cc1cccc(C)c1NC(=O)CCCC(=O)C1CCC/C1=N\NC(=O)C(=O)NN (stereo not drawn)
Result: > 100 µM

Query: Ok, now `CC(=O)Oc1ccccc1C(=O)C1c2cccc(O)c2C(=O)c2c(O)cccc21`
Result: 0.506 µM

Query: Ok, now O=C1C(=O)N(C2C3CC4CC(C3)CC2C4)C(=O)C(=O)C1c1nc2ccccc2o1 (stereo not drawn)
Result: > 100 µM

Query: Ok, now `[O-]c1on[n+]2c1c(Nc1ccc(Cl)cc1)nc1ccccc12`
Result: > 100 µM

Query: Ok, now `FC(F)(F)c1ccc2nc(Nc3ccc(Cl)c(Cl)c3)c(-c3ccccc3)nc2c1`
Result: > 100 µM

Query: Ok, now `CC(C)[C@@H](COC(C)(C)C)N=CN1CCc2c([nH]c3ccccc23)C1`
Result: > 100 µM

Query: Ok, now `O=c1cccccc1NCCCCCCCCCNc1cccccc1=O`
Result: 20 µM

Query: Ok, now O=C1CC2C(=O)N(Cc3ccccc3)C1C(S(=O)(=O)c1ccccc1)C2S(=O)(=O)c1ccccc1 (stereo not drawn)
Result: 3.53 µM

* * *

system: SF-539 CNS; test: NCI tumour cell line growth inhibition, 48 h
MEASUREMENT TYPE: TGI (µM)
Express your answer in µM, writing the number without its unit.

COC(=O)[C@@H]1CCCN1C(=O)[C@@H]1CCCN1C(=O)[C@@H](Cc1c[nH]c2ccccc12)NC(=S)Nc1cc(C(F)(F)F)cc(C(F)(F)F)c1	67.4

Query: Query TGI on SF-539 CNS for Cc1ccc2c(c1)ncn2-c1ncnc2c1CC(C)c1ccccc1N2C (centres undefined)
Result: 11.6

Query: Ok, now `O=C1C=CC(=O)c2c(O)c(N[C@@H](Cc3ccccc3)C(=O)OCc3ccccc3)c(Cl)c(O)c21`
Result: 8.86

* * *

tested on: SK-OV-3 ovarian; experiment: NCI tumour cell line growth inhibition, 48 h
MEASUREMENT TYPE: TGI

O=C(Cc1ccccc1)N/N=C(\C1=Nc2ccc([N+](=O)[O-])cc2NC1O)C(O)c1ccc([N+](=O)[O-])cc1 (stereo not given)	> 100 µM

Query: I would be grateful if you could share the reported TGI for `Fc1ccc(Nc2nc(NCCNc3ccnc4cc(Cl)ccc34)nc(N3CCOCC3)n2)cc1` .
Result: 24.6 µM

Query: Ok, now `CCc1c[nH]c2ncnc(N3CC[C@@](N)(CNC(=O)c4ccc(F)cc4F)C3)c12`
Result: > 100 µM

Query: Ok, now `COc1ccccc1-c1c(C)nn2c(NCc3ccccn3)cc(C)nc12`
Result: > 50 µM

Query: Ok, now `CCOC(=O)c1cnn(-c2ccnc3c(C(F)(F)F)cccc23)c1N`
Result: > 100 µM

Query: Ok, now COc1ccc(/C=C2\CCCC3=C2NC(C)=NC3c2ccc(OC)c(OC)c2)cc1OC (stereo not given)
Result: > 100 µM

Query: Ok, now `N=c1oc2ccc(Cl)cc2cc1C(=O)Nc1ccccc1`
Result: > 70.2 µM

Query: Ok, now `C[C@H](CSC(=O)c1ccccc1)C(=O)N1c2ccccc2C[C@H]1C(=O)O`
Result: > 100 µM

Query: Ok, now `Cn1cc(-c2ccc3c(c2)CCN3C(=O)Cc2cccc(C(F)(F)F)c2)c2c(N)ncnc21`
Result: 8.14 µM

Query: Ok, now `O=C(O)C/C(=C\c1ccccc1)C(=O)O`
Result: > 100 µM
